Reference source for all entries: the NIST ThermoML archive (doi:10.1021/je200707b)

# MEASUREMENT PARAMETERS: 313.15 K; 101.33 kPa; Liquid; Vibrating tube method
OBSERVED PROPERTY: mass density (kg/m3)
Provide the reading as a plain figure in kg/m3.

{"MOLECULE": "CCO", "MEASURED NUMBER": 772.18}
{"MOLECULE": "CCCO", "MEASURED NUMBER": 787.34}

Item: CCCCO | mass density: 794.26

Item: CC(=O)O.CCCCN [butylammonium acetate] | mass density: 946.98

Item: CO | mass density: 772.29

----------
Each entry below carries its reported mass density.
# MEASUREMENT PARAMETERS: 298.15 K; 101.33 kPa; Liquid; Vibrating tube method
Provide the reading as a plain figure in kg/m3.

Record excerpt, results attached:
{"COMPOUND": "CCCCO", "OBSERVED PROPERTY": "mass density", "UNIT NAME": "kg/m3", "MEASURED NUMBER": 805.9}
{"COMPOUND": "CC(=O)O.CCCCN [butylammonium acetate]", "OBSERVED PROPERTY": "mass density", "UNIT NAME": "kg/m3", "MEASURED NUMBER": 956.44}
{"COMPOUND": "CO", "OBSERVED PROPERTY": "mass density", "UNIT NAME": "kg/m3", "MEASURED NUMBER": 786.56}
{"COMPOUND": "CCO", "OBSERVED PROPERTY": "mass density", "UNIT NAME": "kg/m3", "MEASURED NUMBER": 785.25}

Turning now to a further compound:
Item: CCCO | mass density: 799.55

----------
# MEASUREMENT PARAMETERS: 313.15 K; 101.33 kPa; Liquid; Falling or rolling sphere viscometry
Please note: 1.0 applies when viscosity is 2 mPa·s or greater, and 0.0 applies otherwise.

{"COMPOUND": "CO", "CAT": 0.0}
{"COMPOUND": "CCCCO", "CAT": 0.0}
{"COMPOUND": "CCCO", "CAT": 0.0}
{"COMPOUND": "CC(=O)O.CCCCN [butylammonium acetate]", "CAT": 1.0}

Request: Dear colleague, could you confirm whether CCO has viscosity at or above 2 mPa·s?
Response: 0.0

----------
# MEASUREMENT PARAMETERS: 298.15 K; 101.33 kPa; Liquid; Falling or rolling sphere viscometry
Each entry below carries its reported log10 viscosity.
The figures below represent log10 of viscosity, where viscosity is stated in mPa·s.

Record excerpt, results attached:
{"COMPOUND": "CCCO", "log10 viscosity": 0.30}
{"COMPOUND": "CCCCO", "log10 viscosity": 0.42}
{"COMPOUND": "CC(=O)O.CCCCN [butylammonium acetate]", "log10 viscosity": 2.74}
{"COMPOUND": "CCO", "log10 viscosity": 0.05}

Turning now to a further compound:
Item: CO | log10 viscosity: -0.25
